- target.or.system: URAT-1 (uric acid transporter) (Homo sapiens (Human), UniProt Q96S37)
- Sequence (Q96S37 whole entry): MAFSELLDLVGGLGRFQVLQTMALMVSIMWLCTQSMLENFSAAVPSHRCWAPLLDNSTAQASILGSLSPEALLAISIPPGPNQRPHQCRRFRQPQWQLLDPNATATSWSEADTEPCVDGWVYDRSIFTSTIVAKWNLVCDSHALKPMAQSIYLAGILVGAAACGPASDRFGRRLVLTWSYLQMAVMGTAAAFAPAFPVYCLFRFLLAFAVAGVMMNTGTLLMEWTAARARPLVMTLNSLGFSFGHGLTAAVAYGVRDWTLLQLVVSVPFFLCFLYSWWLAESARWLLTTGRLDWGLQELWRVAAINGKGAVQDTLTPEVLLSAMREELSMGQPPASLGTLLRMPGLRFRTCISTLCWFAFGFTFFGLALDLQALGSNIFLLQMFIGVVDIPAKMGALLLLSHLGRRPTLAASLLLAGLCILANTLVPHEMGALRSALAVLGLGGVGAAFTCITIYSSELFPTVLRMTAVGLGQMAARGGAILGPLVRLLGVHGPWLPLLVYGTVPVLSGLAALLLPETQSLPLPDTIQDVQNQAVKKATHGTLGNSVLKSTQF
- assay: Inhibition of 14C uric acid transport by HEK293 cell line stably transfected with the URAT-1 gene
- test.context: URAT-1 (HEK293) cells; 14C-labelled uric acid 50 um, 10 min at 37° C.; read-out: IC50 (inhibition against URAT-1)
Reported IC50 values follow for various molecules

As a guide, the following entries are already answered.
1) O=C(O)CSc1nnc(Br)n1-c1sc(-c2cccc(F)c2)c2c1CCC2 | > 20 µM
2) CC(C)(Sc1nnc(Br)n1-c1sc(-c2ccccc2)c2c1CCCC2)C(=O)O | < 2 µM
3) O=C(O)CSc1nncn1-c1sc(-c2cccc(Cl)c2)c2c1CCC2 | > 20 µM
4) CN(C)c1ccc(-c2sc(-n3cnnc3SCC(=O)O)c3c2CCC3)cc1Br | 2 to 20 µM
5) O=C(O)CSc1nnc(Br)n1-c1sc(-c2ccc(Cl)c(Cl)c2)c2c1CCCC2 | 2 to 20 µM

In: If you can, please state the reported IC50 value of Cc1cc(-n2c(Br)nnc2SC(C(=O)O)c2ccccc2)sc1C1CC1 (stereo not drawn) .
Out: 2 to 20 µM

In: And CC(C)(Sc1nnc(Br)n1-c1sc(-c2ccncn2)c2c1CCCC2)C(=O)O ?
Out: > 20 µM

In: And Cc1cc(-n2c(Br)nnc2SC(C)C(=O)O)sc1C1CC1 (stereo not drawn) ?
Out: < 2 µM

In: And CC(Sc1nnc(Br)n1-c1sc(-c2ccc(Cl)c(Cl)c2)c2c1CCCC2)C(=O)O (stereo not drawn) ?
Out: 2 to 20 µM
